# test: pharmacokinetic parameter was evaluated after oral administration of 30 mg/kg to rat
# Type: ADME, organism-based
# Set-up: dose 30 mg/kg, route oral
# stated conditions: in vivo
property label: AUC (ng·h/mL)

COc1cc2ncnc(N3CCN(/C(S)=N\Cc4ccc5c(c4)OCO5)CC3)c2cc1OC	89900

A: COc1cc2ncnc(N3CCN(C(=O)Nc4ccsc4)CC3)c2cc1OC
B: COc1cc2ncnc(N3CCN(C(=S)NCc4ccco4)CC3)c2cc1OC
C: COc1cc2ncnc(N3CCN(/C(S)=N\Cc4cccnc4)CC3)c2cc1OC.Cl.Cl
Hi! Can you put these in order of AUC, lowest number first? Answer by naming the labels in the order asked.
C, B, A
(C: 9840 ng·h/mL, B: 95800 ng·h/mL, A: 145000 ng·h/mL)
